TESTED_ON: Platypus Mel1C (Ornithorhynchus anatinus, UniProt A0A2P1K6N2)
Sequence (A0A2P1K6N2 1-349): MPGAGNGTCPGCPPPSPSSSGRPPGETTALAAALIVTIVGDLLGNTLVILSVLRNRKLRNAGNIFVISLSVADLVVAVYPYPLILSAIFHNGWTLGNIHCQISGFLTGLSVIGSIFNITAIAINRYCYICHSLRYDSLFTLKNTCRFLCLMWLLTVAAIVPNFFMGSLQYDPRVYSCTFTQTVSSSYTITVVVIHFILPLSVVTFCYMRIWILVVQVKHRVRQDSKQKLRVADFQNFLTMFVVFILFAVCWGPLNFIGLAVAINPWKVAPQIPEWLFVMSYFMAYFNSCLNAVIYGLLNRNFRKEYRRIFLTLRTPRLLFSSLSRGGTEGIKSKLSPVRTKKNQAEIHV
TEST_METHOD_NOTES: 2-[125I]-iodomelatonin competition binding, membranes from stably transfected CHO cells, platypus Mel1c
COND: membranes from stably transfected CHO cells; radioligand 2-[125I]-iodomelatonin; read-out: Platypus Mel1C (converted)
Protocol: CHO-Flp-In cells (Thermo Fisher Scientific, Waltham, USA) were cultivated in the presence of zeocin (0.1 mg/ml). […] This standard procedure was described in a previous experiment with CHO cells expressing the sheep MT2 receptor [23]. […] The protein content was determined according to the method of Lowry et al. using the Bio-Rad kit (Bio-Rad SA, Ivry-sur-Seine, France). […]
Reported log10(Ki) values for the following molecules.
Please keep in mind that the values are log10 of Ki expressed in µM.

So for COc1ccc2[nH]cc(CCNC(C)=O)c2c1 [Melatonin] , the logged log10(Ki) turned out to be -2.70

Sure, the documented log10(Ki) for CCC(=O)N[C@@H]1Cc2ccccc2[C@H](c2ccccc2)C1 [4P-PDOT] is -0.20

Further cases:
Record COCC(CNC(C)=O)c1cccc2ccc(OC)cc12 (centres unmarked) [S73893] . Reported log10(Ki): -1.70

log10(Ki) reported for this molecule COc1ccc2[nH]cc(CCNC(C)=O)c2c1I [4-Iodomelatonin] : -1.00

Noted for COc1cc2c(CCNC(C)=O)c[nH]c2cc1I [6-Iodomelatonin] : its log10(Ki) reads -2.40

###

TESTED_ON: hMT1 (Homo sapiens, UniProt P48039)
Sequence (P48039 whole entry): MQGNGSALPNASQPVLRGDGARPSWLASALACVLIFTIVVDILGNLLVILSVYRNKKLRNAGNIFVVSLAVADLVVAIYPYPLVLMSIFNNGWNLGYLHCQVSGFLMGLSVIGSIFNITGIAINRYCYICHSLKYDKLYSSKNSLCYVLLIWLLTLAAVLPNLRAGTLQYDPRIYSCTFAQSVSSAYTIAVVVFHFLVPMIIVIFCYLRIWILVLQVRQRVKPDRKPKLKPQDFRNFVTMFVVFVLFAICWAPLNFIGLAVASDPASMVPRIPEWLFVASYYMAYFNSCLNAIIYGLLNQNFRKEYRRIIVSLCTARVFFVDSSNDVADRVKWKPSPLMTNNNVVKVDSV
TEST_METHOD_NOTES: 2-[125I]-iodomelatonin competition binding, human MT1
COND: membranes from stably transfected CHO cells; radioligand 2-[125I]-iodomelatonin; read-out: hMT1 (converted)
// map Ki to label using one = under 0.004 µM, two = from 0.004 µM up to 0.1 µM, three = 0.1 µM and over

Observe how each entry below is paired with its result.
Input line: Class (by measured Ki) for CCc1ccc2scc(CCNC(C)=O)c2c1 [S22153]
Output line: two

Input line: Each compound maps to one class by Ki. Which class for CCC(=O)N[C@@H]1Cc2ccccc2[C@H](c2ccccc2)C1 [4P-PDOT] ?
Output line: three

Input line: Looking at COc1cc2c(CCNC(C)=O)c[nH]c2cc1I [6-Iodomelatonin] , which class would you pick?
Output line: one

Input line: Input COc1ccc2ncn(CCNC(C)=O)c2c1 [S21278] ; output its category
Output line: three

Input line: Each compound maps to one class by Ki. Which class for COc1cc2c(CCNC(C)=O)c(I)[nH]c2cc1[N+](=O)[O-] [S27128] ?
Output line: one

Input line: Could you tell me which band COc1ccc2[nH]cc(CCNC(C)=O)c2c1I [4-Iodomelatonin] belongs to?
Output line: two

---
Input line: Kindly identify the class of O=C(NCCc1cccc2ccccc12)C1CCC1 [S20928] .
Output line: two

###

TESTED_ON: Platypus Mel1C (Ornithorhynchus anatinus)
TEST_METHOD_NOTES: 2-[125I]-iodomelatonin competition binding, transiently transfected COS7 cells, platypus Mel1c
COND: COS7 cells transiently transfected with Mel1c gene; radioligand 2-[125I]-iodomelatonin; two transfections, triplicate
Outcome: satisfied for pKi Ornithorhyncus anatinus of at least 7; not satisfied for anything lower.

Consider the worked cases shown below.
Input line: // inclusive: pKi Ornithorhyncus anatinus at least 7? input: `COc1ccc2cccc(CCNC(C)=O)c2c1`
Output line: satisfied

Input line: API: above_or_equal(metric=pKi Ornithorhyncus anatinus, cutoff=7) for item `CCC(=O)N[C@@H]1Cc2ccccc2[C@H](c2ccccc2)C1`
Output line: not satisfied

More entries:
Input line: Is reported pKi Ornithorhyncus anatinus greater than or equal to 7 here: `COc1ccc2[nH]c(-c3cccc4ccccc34)c(CCNC(=O)CI)c2n1`
Output line: not satisfied

Input line: Check this compound for pKi Ornithorhyncus anatinus at or above 7: `COc1ccc2[nH]c(I)c(CCNC(C)=O)c2c1`
Output line: satisfied

Input line: Hi, just wondering whether `COc1ccc2[nH]cc(CCNC(C)=O)c2c1` shows pKi Ornithorhyncus anatinus of 7 or higher.
Output line: satisfied

Input line: # check: pKi Ornithorhyncus anatinus of `CC(=O)NCCc1c(Cc2ccccc2)[nH]c2ccccc12` is greater than or equal to 7
Output line: not satisfied

Input line: Reported pKi Ornithorhyncus anatinus at or above 7? `CCc1ccc2scc(CCNC(C)=O)c2c1`
Output line: satisfied

Hey, just so you know, these numbers are from paper PMC5846726.
